subject-of-test: human mAChR M1 (Homo sapiens, UniProt P11229)
assay: mAChR M1 cell-based functional assay: calcium mobilization, positive allosteric modulator mode (increase in EC20 acetylcholine response)
experimental-context: Table 2; human M1; read-out: Human M1 Emax (%)
measured-property: Emax (%)

Some solved cases for reference:
compound	unit-info	Emax
Cn1ccc(-c2ccc(Cc3cc(C(=O)NC4CCOCC4(C)C)nc4ccsc34)cn2)n1 (centres unmarked) [Compound 376]	%	60.7
Cn1ccc2nc(C(=O)N[C@H]3CC[C@@H]3O)cc(Cc3ccc(-c4nccs4)cc3)c21 [Compound 482]	%	61.2
Cn1cc(-c2ccc(Cc3cc(C(=O)N[C@H]4CCCC[C@@H]4O)nc4ccn(C)c34)cn2)cn1 [Compound 469]	%	72.3
Cn1cc(-c2ccc(Cc3cc(C(=O)NC4CC5(COC5)C4)nc4ccsc34)cn2)cn1 [Compound 327]	%	79.2
COC1CC(NC(=O)c2cc(Cc3ccc(-n4cccn4)cc3)c3sccc3n2)C1 (centres unmarked) [Compound 431]	%	69.3
Cn1cc(-c2ccc(Cc3cc(C(=O)NC4CCOCC4)nc4ccsc34)cc2)cn1 [Compound 268]	%	70.1
Cc1nc(-c2ccc(Cc3cc(C(=O)NC4CCOCC4)nc4ccsc34)cc2)cs1 [Compound 191]	%	86.9
Cn1cc(-c2ccc(Cc3cc(C(=O)NC4CCOCC4)nc4ccsc34)cc2)nn1 [Compound 229]	%	78.6

(1) CC1CC(NC(=O)c2cc(Cc3ccc(-c4cnn(C)c4)cc3)c3sccc3n2)CC(C)O1 (centres unmarked) [Compound 380]
(2) CC(C)(C#N)NC(=O)c1cc(Cc2ccc(-n3cccn3)cc2)c2sccc2n1 [Compound 283]
q: Field: lower Emax | Options: 1 / 2 Identify your selection by its label.
a: 2

(I) Cn1ccc(-c2ccc(Cc3cc(C(=O)NC4CCOCC4)nc4ccn(C)c34)cc2)n1 [Compound 473]
(II) CO[C@@H]1CCCC[C@H]1NC(=O)c1cc(Cc2cnc(C)s2)c2sccc2n1 [Compound 139]
q: Field: lower Emax | Options: I / II Identify your selection by its label.
a: II

* * *

subject-of-test: UniProt P11229
Sequence (P11229 1-460): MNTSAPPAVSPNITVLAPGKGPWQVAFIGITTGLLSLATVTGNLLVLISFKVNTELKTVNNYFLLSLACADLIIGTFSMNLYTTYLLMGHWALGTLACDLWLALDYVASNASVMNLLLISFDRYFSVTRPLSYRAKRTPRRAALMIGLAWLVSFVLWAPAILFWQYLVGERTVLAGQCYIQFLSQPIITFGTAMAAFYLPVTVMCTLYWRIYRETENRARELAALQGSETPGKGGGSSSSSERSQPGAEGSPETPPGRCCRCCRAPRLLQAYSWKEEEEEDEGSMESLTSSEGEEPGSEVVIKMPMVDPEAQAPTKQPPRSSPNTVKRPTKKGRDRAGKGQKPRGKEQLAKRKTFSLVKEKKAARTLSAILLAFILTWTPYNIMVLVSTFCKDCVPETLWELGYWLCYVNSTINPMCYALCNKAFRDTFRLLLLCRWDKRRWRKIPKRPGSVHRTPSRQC
assay: mAChR M1 cell-based functional assay: calcium mobilization, positive allosteric modulator mode (increase in EC20 acetylcholine response)
experimental-context: Table 2; human M1; read-out: Human M1 Emax (%)
measured-property: Emax (%)

Some solved cases for reference:
compound	subject-of-test	Emax [%]
Cc1ncc(Cc2cc(C(=O)N[C@@H]3CCOC[C@H]3O)nc3ccsc23)s1 [Compound 137]	UniProt P11229	80.3
Cn1ccc2nc(C(=O)N[C@H]3CCCC[C@@H]3O)cc(Cc3ccc(-c4cscn4)cc3)c21 [Compound 457]	UniProt P11229	64.8
Cn1cc(-c2ccc(Cc3cc(C(=O)NC4CCOCC4(C)C)nc4ccsc34)cn2)cn1 (stereo not shown) [Compound 362]	UniProt P11229	72.4
Cn1ccc(-c2ccc(Cc3cc(C(=O)N[C@H]4CC[C@@H]4O)nc4ccn(C)c34)cn2)n1 [Compound 513]	UniProt P11229	77.8
Cn1ncc2nc(C(=O)N[C@H]3CCC[C@@H]3O)cc(Cc3ccc(-n4cccn4)cc3)c21 [Compound 497]	UniProt P11229	68.1

(A) Cn1ccc(-c2ccc(Cc3cc(C(=O)N[C@H]4CCCC[C@@H]4O)nc4ccsc34)cc2)n1 [Compound 256]
(B) O=C(N[C@H]1CCCC[C@@H]1O)c1cc(Cc2c(F)cc(-c3cscn3)cc2F)c2sccc2n1 [Compound 273]
q: Lab note: record which item had the higher Emax, A or B . Identify your selection by its label.
a: B
(B: 73.6%, A: 50%)

(I) O=C(NC1CC(F)(F)C1)c1cc(Cc2ccc(-n3cccn3)cc2)c2sccc2n1 [Compound 281]
(II) O=C(c1cc(Cc2ccc(-n3cccn3)cc2)c2sccc2n1)N1CCN(CCO)CC1 [Compound 84]
(III) O=C(NCC1CCN1)c1cc(Cc2ccc(-n3cccn3)cc2)c2sccc2n1 (stereo not shown) [Compound 292]
q: Reorder: Emax, max to min. Your task in answering is to list the labels in the requested order.
a: III, I, II
(III: 81.8%, I: 55%, II: 24.4%)

* * *

subject-of-test: human mAChR M1 (Homo sapiens, UniProt P11229)
assay: mAChR M1 cell-based functional assay: calcium mobilization, positive allosteric modulator mode (increase in EC20 acetylcholine response)
experimental-context: Table 2; human M1; read-out: Human M1 Emax (%)
measured-property: Emax (%)

compound	subject-of-test	measured-property	meas-value
O=C(NCC1CCCCO1)c1cc(Cc2ccc(-n3cccn3)cc2)c2sccc2n1 (centres unmarked) [Compound 289]	human mAChR M1 (Homo sapiens, UniProt P11229)	Emax	80.7
Cc1nc(-c2ccc(Cc3cc(C(=O)N4CCC(C)(O)CC4)nc4ccsc34)cc2)co1 [Compound 174]	human mAChR M1 (Homo sapiens, UniProt P11229)	Emax	45.1
O=C(NC12CC(C1)C2)c1cc(Cc2ccc(-c3cscn3)cc2)c2sccc2n1 [Compound 201]	human mAChR M1 (Homo sapiens, UniProt P11229)	Emax	38.5
CO[C@H]1CCCC[C@@H]1NC(=O)c1cc(Cc2ccc(-c3cscn3)cc2)c2sccc2n1 [Compound 218]	human mAChR M1 (Homo sapiens, UniProt P11229)	Emax	52.2
Cc1ncc(Cc2cc(C(=O)N[C@@H]3CCC[C@H]3O)nc3ccsc23)s1 [Compound 133]	human mAChR M1 (Homo sapiens, UniProt P11229)	Emax	77.9
Cn1ccc(-c2ccc(Cc3cc(C(=O)N[C@H]4CCC[C@@H]4O)nc4ccsc34)cn2)n1 [Compound 352]	human mAChR M1 (Homo sapiens, UniProt P11229)	Emax	90.7
Cc1nc(-c2ccc(Cc3cc(C(=O)N[C@H]4CCOC[C@@H]4O)nc4c(C)csc34)cc2)co1 [Compound 330]	human mAChR M1 (Homo sapiens, UniProt P11229)	Emax	62.8
Cn1ccc(-c2ccc(Cc3cc(C(=O)N[C@H]4CCOC4)nc4ccsc34)cn2)n1 [Compound 417]	human mAChR M1 (Homo sapiens, UniProt P11229)	Emax	66.6

(a) O=C(N[C@@H]1COCC[C@H]1O)c1cc(Cc2ccc(C(F)(F)F)nc2)c2sccc2n1 [Compound 92]
(b) Cc1ccc(Cc2cc(C(=O)NC3C(=O)Nc4ccccc43)nc3ccsc23)cn1 (centres unmarked) [Compound 68]
q: Field: lower Emax | Options: a / b Identify your selection by its label.
a: b

(I) O=C(NCC1CCO1)c1cc(Cc2ccc(-n3cccn3)cc2)c2sccc2n1 (centres unmarked) [Compound 284]
(II) Cn1ccc2nc(C(=O)NC3CC(F)C3)cc(Cc3ccc(-c4nccs4)cc3)c21 (centres unmarked) [Compound 488]
q: Field: lower Emax | Options: I / II Identify your selection by its label.
a: II
(II: 37.5%, I: 66.9%)

* * *

subject-of-test: human mAChR M1 (Homo sapiens, UniProt P11229)
assay: mAChR M1 cell-based functional assay: calcium mobilization, positive allosteric modulator mode (increase in EC20 acetylcholine response)
experimental-context: Table 2; human M1; read-out: Human M1 EC50
pEC50: −log10 of the molar value.
measured-property: pEC50

Some solved cases for reference:
molecule	measured-property	meas-value
O=C(NC1CC2(COC2)C1)c1cc(Cc2c(F)cc(-c3cscn3)cc2F)c2sccc2n1 [Compound 272]	pEC50	6.36
Cn1ccc(-c2ccc(Cc3cc(C(=O)NCC4CCOCC4)nc4ccsc34)cn2)n1 [Compound 358]	pEC50	6.70
Cn1ccc(-c2ccc(Cc3cc(C(=O)N[C@@H]4COCC[C@H]4O)nc4ccsc34)cn2)n1 [Compound 410]	pEC50	7.25
Cn1cc(-c2ccc(Cc3cc(C(=O)NC4CCOC(C)(C)C4)nc4ccsc34)cn2)cn1 (centres unmarked) [Compound 336]	pEC50	7.19

(a) Cn1ccc(-c2ccc(Cc3cc(C(=O)NC4CCOCC4)nc4ccn(C)c34)cn2)n1 [Compound 503]
(b) Cn1ccc2nc(C(=O)NCC3CCOCC3)cc(Cc3ccc(-c4cscn4)cc3)c21 [Compound 466]
(c) N#CC1(NC(=O)c2cc(Cc3ccc(-n4cccn4)cc3)c3sccc3n2)CC1 [Compound 282]
q: Reorder: pEC50, max to min. Your task in answering is to list the labels in the requested order.
a: b, c, a

(P) CC1CC(NC(=O)c2cc(Cc3ccc(-c4nccs4)cc3)c3sccc3n2)CC(C)O1 (centres unmarked) [Compound 386]
(Q) Cc1csc2c(Cc3ccc(-c4ccn(C)n4)cc3)cc(C(=O)N[C@H]3CCCC[C@@H]3O)nc12 [Compound 312]
(R) Cc1nc(-c2ccc(Cc3cc(C(=O)N[C@@H]4CC[C@H]4O)nc4ccsc34)cc2)cs1 [Compound 176]
(S) Cn1cc(-c2ccc(Cc3cc(C(=O)NC4CCOCC4)nc4ccsc34)cc2)cn1 [Compound 268]
(T) Cc1nc(-c2ccc(Cc3cc(C(=O)N[C@H]4CCOC[C@@H]4O)nc4c(C)csc34)cc2)co1 [Compound 330]
q: Order by pEC50, ascending. Your task in answering is to list the labels in the requested order.
a: P, R, Q, S, T

(1) O=C(NC1COC1)c1cc(Cc2ccc(-c3cscn3)cc2)c2sccc2n1 [Compound 202]
(2) Cc1nc(-c2ccc(Cc3cc(C(=O)N[C@H]4CC[C@@H]4O)nc4ccsc34)cc2)co1 [Compound 146]
(3) O=C(N[C@H]1CC[C@@H]1O)c1cc(Cc2ccc(C(F)(F)F)nc2)c2sccc2n1 [Compound 87]
q: Reorder: pEC50, max to min. Your task in answering is to list the labels in the requested order.
a: 2, 1, 3
(2: 6.47, 1: 5.86, 3: 5.50)

These entries and their values trace back to patent US11111251B2.
